The measured values listed here are drawn from patent US20230120736A1.

Target: T1, human CD98 ECD (Homo sapiens, UniProt P08195)
T1 construct: Human CD98 ECD with C-terminal His-tag
T1 sequence (P08195 with tags, fused parts or gaps): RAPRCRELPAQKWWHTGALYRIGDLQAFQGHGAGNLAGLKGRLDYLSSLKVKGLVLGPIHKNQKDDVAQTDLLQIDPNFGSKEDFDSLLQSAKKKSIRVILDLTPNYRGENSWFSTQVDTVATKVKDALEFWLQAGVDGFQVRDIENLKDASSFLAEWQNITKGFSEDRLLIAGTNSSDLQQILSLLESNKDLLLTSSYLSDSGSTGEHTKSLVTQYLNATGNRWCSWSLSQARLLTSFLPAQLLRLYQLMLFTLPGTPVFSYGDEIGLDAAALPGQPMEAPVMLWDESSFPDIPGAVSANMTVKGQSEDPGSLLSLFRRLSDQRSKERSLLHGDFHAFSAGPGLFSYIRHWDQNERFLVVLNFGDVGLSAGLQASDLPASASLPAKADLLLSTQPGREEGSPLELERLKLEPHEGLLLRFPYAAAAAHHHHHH
Assay: Biacore surface plasmon resonance binding kinetics (anti-Fc capture)
Details: huCD98 ECD
Protocol: The binding kinetics of these purified mouse and rat monoclonal anti-CD98 antibodies for purified recombinant CD98 protein (extracellular domain, ECD) were determined by surface plasmon resonance-based measurements made on Biacore T100/T200 instruments (GE Healthcare, Piscataway, N.J.) at 25° C. using an anti-Fc capture assay approach. Binding kinetic measurements were made in the assay buffer HBS-EP+: 10 mM Hepes, pH 7.4, 150 mM NaCl, 3 mM EDTA, 0.05% Tween 20). […]
Please go through the items and note down their kd.
Provide the reading as a plain figure in s⁻¹.

Query: Recall and state the measured kd for huAb15v7 (antibody, V domains shown) VH: EVQLVESGGGVVQPGRSLRLSCAASGFTFSDYTMAWVRQAPGKGLEWVATIIYDARGTYYRDAVKGRFTISRDNSKSTLYLQMNSLRAEDTAVYYCARQSDDTYYYWGYFDYWGQGTMVTVSS VL: DIVMTQSPDSLAVSLGERATINCKSSQSLLFSGNQKNYLAWYQQKPGQSPKLLIYWASTRQSGVPDRFSGSGSGTDFTLTIRSLQAEDVAIYYCQQYYGSPYTFGQGTKLEIK .
Result: 0.00021

Query: Recall and state the measured kd for huAb101: "heavy chain variable sequence of huAb101 is provided in SEQ ID NO: 106"; "light chain variable sequence ... in SEQ ID NO: 107" (antibody, V domains shown) VH: EVQLVESGGGLVKPGGSLRLSCATSGFTFIDYYMSWVRQAPGKGLEWLGFIRNKANRYTTEYSASVKGRFTISRDNSKSILYLQMNSLKTEDTAVYYCTRDRPAWFVYWGQGTLVTVSS VL: DIVMTQTPLSLPVTPGEPASISCKSSQSLLYSSNQKNYLAWYLQKPGQSPQLLIYWASTRESGVPDRFSGSGSGTDFTLKISRVEAEDVGVYYCQQYYSYPYTFGGGTKVEIK .
Result: 0.0018
